B1: TPR t1 (parent)
chain: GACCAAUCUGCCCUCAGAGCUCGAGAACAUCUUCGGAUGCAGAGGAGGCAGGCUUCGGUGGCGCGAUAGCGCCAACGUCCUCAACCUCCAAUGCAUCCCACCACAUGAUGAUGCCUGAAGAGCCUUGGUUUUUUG

- Variants of: B1
- Measurement Description: polymerase ribozyme fitness, log enrichment relative to wild type (log ratio); higher = more active; in vitro selection for triplet polymerase activity
Measurement Type: polymerase ribozyme fitness (log ratio)

Residues: GACCAAUCUGCACUCAGAGCUCGAGAACAUCUUCGCAUGCAGAGGAGGCAGGCUUCGGUGGCGCGAUAGCGCCAACGUCCUCAACCUCCAAUGCAUCCCACCACAUGAUGAUGCCUGAAGAGCCUUGGUUUUUUG [C12A G36C]
Measurement Type: polymerase ribozyme fitness (log ratio)
Quantitative Readout: -1.69
//
Residues: GACAAAUCUGCCCUCAGAGCUCGAGAACAUCUUCGGAUGCAGAGGAGGCAGGGUUCGGUGGCGCGAUAGCGCCAACAUCAUCAACCUCCAAUGCAUCCCACCACAUGAUGAUGCCUGAAGAGCCUUGGUUUUUUG [C4A C53G G77A C80A]
Measurement Type: polymerase ribozyme fitness (log ratio)
Quantitative Readout: -5.1
//
Residues: GACCAAUCGGCCCUCAGAGCUCGAGAACAUCUUCGGAUGCAGAGUAGGCAGGCUUCGGUGGCGCGAUAGCGCCAACGUCCUCAACCUCCAAUGCAUCCCACCACAUGAUGAUGCCUGAAGAGCCUUGGUUUUUUG [U9G G45U]
Measurement Type: polymerase ribozyme fitness (log ratio)
Quantitative Readout: -0.0404
//
Residues: GGCCAAUCUGCCCCCAGAGCUCGAGAACAUCUUCGGAUGCAGAGGAGGCAGGCUUCGGUGGCGCGAUAGUGCCAACGUCCUCAACCUCCAAUGCAUCCCACCACAUGAUGAUGCCUGAAGAGCCUUGGUUUUUUG [A2G U14C C70U]
Measurement Type: polymerase ribozyme fitness (log ratio)
Quantitative Readout: -2.68
//
Residues: GACCAAUCUGCCCUCAGAGCUCGAGAAGAUCUUCGGAUGCAGAGGAGGCAGGCUUCGGGGGCGCGAUAGCGCCAACGUCCCCAACCUCCAAUGCAUCCCACCACAUGAUGAUGCCUCAAGAGCCUUGGUUUUUUG [C28G U59G U81C G117C]
Measurement Type: polymerase ribozyme fitness (log ratio)
Quantitative Readout: -6.32
//
Residues: GACCAAUCUGCCCUCAAAGCUCGAGAACAUCUUCGGAUGCAGAGGUGGCAGGCUUCGGUGGCGCGAUAGCGCCAACGUCCUCAACCUCCAAUGCAUCCCACCACAUGAUGAUGCCUGAAGAGCCUUGGUUUUUUG [G17A A46U]
Measurement Type: polymerase ribozyme fitness (log ratio)
Quantitative Readout: -4.52
//
Residues: GACCAUUCUGCCCUCCGAGCUCGAGAACAUCUUCGGAUGCAGAGGAGGCAGGCUUCGGUGGCGCGAUAGCGCCAACGUCCUCAACCUCCAAUGCAUCCCACCACAUGAUGAUGCCUGAAGAGCCUUGGUUUUUUG [A6U A16C]
Measurement Type: polymerase ribozyme fitness (log ratio)
Quantitative Readout: -2.44
//
Residues: GACCAAUCUGCCCUCAGAGAUCGAGAACAUCUUCGGAUGCAGAGGCGGCAGGCUUCGGUGGUGCGAUAGCGCCAACGUCCUCAACUUCCAAUGCAUCCCACCACAUGAUGAUGCCUGAAGAGCCUUGGUUUUUUG [C20A A46C C62U C86U]
Measurement Type: polymerase ribozyme fitness (log ratio)
Quantitative Readout: -3.97
//
Residues: GACCAAUCUGCCCUCAGGGCUCGAGAACAUCUUCGGAUGCAGAGGAGGCAGGCUUGGGUGGCGCGAUAGCGCCAACGUCCUCAACCUCCAAUGCAUCCCACCACAUGAUGAUGACUGAAGAGCCUUGGUUUUUUG [A18G C56G C114A]
Measurement Type: polymerase ribozyme fitness (log ratio)
Quantitative Readout: -4.99
//
Residues: GACCAAUCUGCCCUCAGAGCUCGAGAACAUCUUCGGAUGCAGAGGAGGCAGGCUUCGGUGUAGCGAUAGCGCCAACGUCCUCAACCUCCAAUGCAUCCCACCACAUGAUGAUGCCUGAAGAGCCUUGGUUUUUUG [G61U C62A]
Measurement Type: polymerase ribozyme fitness (log ratio)
Quantitative Readout: -5.14
//
Residues: GACCCAUCUGCCCUCAGAGCUCGAGAACAUCUUCGGAUGCAGAGGAGGCAGGCUUCGGUGGCGUGAUAGCGCCAACGUCCUCAACCUCCAAUGCAUCCCACCACAUGAUGAUGCCUGAAGAGCCUUGGUUUUUUG [A5C C64U]
Measurement Type: polymerase ribozyme fitness (log ratio)
Quantitative Readout: -0.365
//
Residues: GACCAAUCUGCCCUCAGAGCUCGAGAACAUCUUCGGCUGCAGAGGAGGCAGGCUUGGAUGGCCCGAUAGCGCCAACCUCCUCAACCUCCAAUGCAUCCCACCACAUGAUGAUGCCUGAAGAGCCUUGGUUUUUUG [A37C C56G G58A G63C G77C]
Measurement Type: polymerase ribozyme fitness (log ratio)
Quantitative Readout: -3.59
//
Residues: GACCAAUCUGGCCUCAGAGCUCGAGAACAUCUUCGGAUGCAGAGGAGGCCGGCUUCGGUGGCGCGAUAGCGCCAACGUCCUCAACCUCCAAUGCAUCCCACCACAUGAUGAUGCCUGAAGAGCCAUGGUUUUUUG [C11G A50C U125A]
Measurement Type: polymerase ribozyme fitness (log ratio)
Quantitative Readout: -0.245
//
Residues: GACCAAUCUGCCCUCAGAGCUCGAGAACAUCUUCGGAUGCAGAGGUGGCAGGCUUCGGUGGCGCGAUAGCGGCAACGUCCUCAACCUCCAAUGCAUCCCACCACAUGAUGAUGUCUGAAGAGCCUUGGUUUUUUG [A46U C72G C114U]
Measurement Type: polymerase ribozyme fitness (log ratio)
Quantitative Readout: -4.52
//
Residues: GACCAAUCUGCCCUCAGAGCUCGAGAACAUCUUCGGAUGCAGAGGAGGCAUGCUUCGGUGGCGCGAUAGCGCCAACGUACUCAACCCCCAAUGCAUCCCACCACAAGAUGAUGCCUGAAGAGCCUUGGUUUUUUG [G51U C79A U87C U106A]
Measurement Type: polymerase ribozyme fitness (log ratio)
Quantitative Readout: -2.68
//
Residues: GACCAAUCUGCCCUCAGAGCUCGAGAACAUCUUCGAAUGCAUAGGAGGCAGGCUUCGGUGGCGCGAUAGCGCCAACGUCCUCAACCUCCAAUGCAUCCCACCACAUGAUGAUGCCUGAAGAGCCUUGGUUUUUUG [G36A G42U]
Measurement Type: polymerase ribozyme fitness (log ratio)
Quantitative Readout: -2.99
//
Residues: GACCAAUCUGCCCUCAGAGCUCGAGAAUAUCUUCGGAUGCAGAGGAGGCAGGCUUCGGUGGCGCGAUAGCGCCAACGUCCUAAACCUCCAAUGCAUCCCACCACAUGAUGAUGCCUGAAGAGCCUUGGUUUUUUG [C28U C82A]
Measurement Type: polymerase ribozyme fitness (log ratio)
Quantitative Readout: -2.3
//
Residues: GACCAAUCUGCCCUCAGAGCUCGAGAGCAUCUUCGGAUGCAGAGGCGGCUGGCUUCGGUGGCGCGAUAGCGCCAACGUCCUCAACCUCCAAUGCAUCCCACCACAUGAUGAUGCCUGAAGAGCCUUGGUUUUUUG [A27G A46C A50U]
Measurement Type: polymerase ribozyme fitness (log ratio)
Quantitative Readout: -4.64
//
Residues: GACCAAUCUGCCCUCAGAGCUCGAGUACAUCUUCGGAUGCAGAGGAGGCAGGCUUCGGUGGCGCGAUAGCGCCAACGUCCUCAACCUCCAAUGCAUCCCACCACAUGAUGAUGCCUGAAGAGCCUUGGUUUUUUG [A26U]
Measurement Type: polymerase ribozyme fitness (log ratio)
Quantitative Readout: -2.98
//
Residues: GACCAAUCUGCCCUCAGAGCUCGAGAACAUCUUCGGAUGUAGAGGAGGCAGGCUUCGGUGGCGUGAUAGCGCCAACGUCCUGAACCUCCAAUGCAUCCCACCACAUGAUGAUGCCUGAAGAGCCUUGGUUUUUUG [C40U C64U C82G]
Measurement Type: polymerase ribozyme fitness (log ratio)
Quantitative Readout: -1.35
//
Residues: GACCAACCUGCCCUCAGAGCUCGAGAACAUCUUCGGAUGCAGAGGAGGCAGGCUUCGGUGGUGCGAUAGCGCCAACGUCCUCAACCUCCAAUGCAUCCGACCACAUGAUGAGGCCUGAAGAGCCUUGGUUUCUAU [U7C C62U C99G U112G U132C U134A G135U]
Measurement Type: polymerase ribozyme fitness (log ratio)
Quantitative Readout: -6.65
//
Residues: GACCAAUCUGCCCUCAGAGCUCGAGAACAUCUUCGGAUGCAGAGGAGGCAGGCUUCGGUGGCGCGAUAGAGCCAACGUCCUCAACCUCCAAUGCAUCCCACCACAUGAUGAUGCCUGAAGAGCCUUGGCUUUUUG [C70A U129C]
Measurement Type: polymerase ribozyme fitness (log ratio)
Quantitative Readout: -2.68
//
Residues: GACCAAUCUGCCCUCAGAGCUCGAGAACAUCUUCGGAUGCUGAGGAGGUAGGCUUCGGUGGCGCGAUAGCGCCAACGUCCUCAACCUACAAUGCAUCCCACCACAUGAUGAUGCCUGAAGUGCCUUGGUUUUUUG [A41U C49U C88A A121U]
Measurement Type: polymerase ribozyme fitness (log ratio)
Quantitative Readout: -0.675
//
Residues: GACCAAUCUCCCCUCAGAGCUCGAGAACAUCUUCGAAUGCAGAGGAGGCAGGCUUCGGUGGCGCGAUAGCGCCAACGUCCUCAACCUCCAAUGCAUCCCACCACAUGAUGAUGCCUGAAGAGCCUUGGUUUUUUG [G10C G36A]
Measurement Type: polymerase ribozyme fitness (log ratio)
Quantitative Readout: -1.22
//
Residues: GACCAAUCUGCCGUCAGAGCUCGAGAACAUCUUCGGAUGCCGAGGAGGCUGGCUUCGGUGGCGCGAUAGCGCCAACGUCCUCAACCUCCAAUGCAUCCCACCACAUGAUGAUGCCUGAAGAGCCUUGGUUUUAUG [C13G A41C A50U U133A]
Measurement Type: polymerase ribozyme fitness (log ratio)
Quantitative Readout: -4.37
//
Residues: GACCAAUCUGCCCUCAGAGCUCGAGAACAUCUUCGGAUGCAGAGGAGGCAGGCUUCGGUGGCGCGAUAGCGCCAACGCCCGCAACCUCCAAUGCAUCCCACCACAUGAUGAUGCCUGAACAGCCUUGGUUUUUUG [U78C U81G G120C]
Measurement Type: polymerase ribozyme fitness (log ratio)
Quantitative Readout: -1.18
//
Residues: GACCAAUCUGCCCUCAGAGCUCGAGAACAUCUUCGGAUGCAGACGAGGCAGGCUUCGGGGGCGCGAUAGCGCCAACGUCAUCAACCUCCAAUGCAUCCCACCACAUGAUGAUGCCUGAAGAGCCUUGGUUUUUUG [G44C U59G C80A]
Measurement Type: polymerase ribozyme fitness (log ratio)
Quantitative Readout: -4.66
//
Residues: GACCAAUCUGCCCUCAGAGCUCGAGAACAUCUUCGGAGGCAUAGGAGGCAGGCUUCGGUGUCGCGAUAGCGCUAACGUCCUCAACCUCCAAUGCAUCCCACCACAUGAUGAUGCUUGAAGAGCCUUGGUUUUUUG [U38G G42U G61U C73U C115U]
Measurement Type: polymerase ribozyme fitness (log ratio)
Quantitative Readout: -3.73
//
Residues: GACCAAUCUGCCCUCAGAGCUCGAGUACAUCUUCGGAUGCAGAGGAGGCAGGCUUCGGUGGCGCGAUAGCGCCAACGUCCUCAACCUCCAAUGCAUCCCACCACAUGAUGAUGUCUGAAGAGCCUUGGUUUUUUG [A26U C114U]
Measurement Type: polymerase ribozyme fitness (log ratio)
Quantitative Readout: -5.07
//
Residues: GACCAAUCUGCCCUCAGAGCUCGAGAACAUCUUCGGAUGCAGAGGAGGUAGGCUUCGGUGGCCCGAUAGCGCCAACGUCCUCAACCUCCAAUGCAUCCCACCACAUGAUGAUGCCUGAAGAGCUUUGGUUUUUUG [C49U G63C C124U]
Measurement Type: polymerase ribozyme fitness (log ratio)
Quantitative Readout: 0.36
//
Residues: GACCAAUCUGCCCUCAGAGCUCGAGAACAUCUUCGGAUGCAGAGGAGGCAGACUUCGGUGGCGCGAUAGCUCCAACGUCCUCAACCACCAAUGCAUCCCACCACAUGAUGAUGCCUGAAGAGCCUUGGUUGUUUG [G52A G71U U87A U131G]
Measurement Type: polymerase ribozyme fitness (log ratio)
Quantitative Readout: -2.35
